Molecular target: CYP3A4 (Homo sapiens)
Assay: Relative CYP contribution to hepatic bioactivation and detoxification, CYP3A4
Format: in vitro ADME
Conditions: CYP3A4 contribution to total CLbioact of the NSAID
parameter measured: Bioactivation Percent (%)
Give the quantity in %, number only.

Indicate the recorded Bioactivation Percent value for this molecule: O=C(O)Cc1ccccc1Nc1c(Cl)cccc1Cl
1.1

Indicate the recorded Bioactivation Percent value for this molecule: O=C(O)COC(=O)Cc1ccccc1Nc1c(Cl)cccc1Cl
1.2

Indicate the recorded Bioactivation Percent value for this molecule: Cc1ccc(Nc2c(F)cccc2Cl)c(CC(=O)O)c1
3.7

Indicate the recorded Bioactivation Percent value for this molecule: Cc1cccc(Nc2ccccc2C(=O)O)c1C
6.0

Indicate the recorded Bioactivation Percent value for this molecule: O=C(O)c1ccccc1Nc1cccc(C(F)(F)F)c1
55.9

Indicate the recorded Bioactivation Percent value for this molecule: Cc1ccc(Cl)c(Nc2ccccc2C(=O)O)c1Cl
24.7

Indicate the recorded Bioactivation Percent value for this molecule: Cc1c(Cl)cccc1Nc1ccccc1C(=O)O
25.2

###

Target: CYP2C19 (Homo sapiens, UniProt P33261)
Sequence (P33261 whole entry): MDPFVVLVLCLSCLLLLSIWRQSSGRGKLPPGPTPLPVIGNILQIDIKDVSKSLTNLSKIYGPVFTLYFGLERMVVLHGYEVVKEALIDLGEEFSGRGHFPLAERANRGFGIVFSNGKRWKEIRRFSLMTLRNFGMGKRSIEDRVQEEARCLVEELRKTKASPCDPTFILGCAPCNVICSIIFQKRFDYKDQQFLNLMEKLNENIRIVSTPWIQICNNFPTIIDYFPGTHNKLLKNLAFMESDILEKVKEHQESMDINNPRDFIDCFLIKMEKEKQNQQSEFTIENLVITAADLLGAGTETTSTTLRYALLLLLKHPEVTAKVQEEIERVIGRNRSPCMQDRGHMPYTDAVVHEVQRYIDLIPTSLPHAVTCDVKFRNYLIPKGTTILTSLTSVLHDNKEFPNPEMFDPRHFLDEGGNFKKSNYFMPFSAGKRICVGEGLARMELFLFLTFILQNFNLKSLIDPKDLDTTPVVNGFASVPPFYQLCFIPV
Assay: Relative CYP contribution to hepatic bioactivation and detoxification, CYP2C19
Type: in vitro ADME
Settings: CYP2C19 contribution to total CLdetox of the NSAID
Would you mind telling me the reported Detoxification Percent of each entry?
Give the quantity in %, number only.

Indicate the recorded Detoxification Percent value for this compound: O=C(O)c1ccccc1Nc1cccc(C(F)(F)F)c1 [FLU, flufenamic acid]
3.4

Indicate the recorded Detoxification Percent value for this compound: O=C(O)Cc1ccccc1Nc1c(Cl)cccc1Cl [DIC, diclofenac]
5.5

Indicate the recorded Detoxification Percent value for this compound: Cc1ccc(Cl)c(Nc2ccccc2C(=O)O)c1Cl [MEC, meclofenamic acid]
1.9

Indicate the recorded Detoxification Percent value for this compound: Cc1ccc(Nc2c(F)cccc2Cl)c(CC(=O)O)c1 [LUM, lumiracoxib]
8.6

Indicate the recorded Detoxification Percent value for this compound: O=C(O)COC(=O)Cc1ccccc1Nc1c(Cl)cccc1Cl [ACE, aceclofenac]
1.6

Indicate the recorded Detoxification Percent value for this compound: Cc1c(Cl)cccc1Nc1ccccc1C(=O)O [TOL, tolfenamic acid]
3.6

Indicate the recorded Detoxification Percent value for this compound: Cc1cccc(Nc2ccccc2C(=O)O)c1C [MEF, mefenamic acid]
2.1

###

Target: CYP3A4 (Homo sapiens, UniProt P08684)
Sequence (P08684 whole entry): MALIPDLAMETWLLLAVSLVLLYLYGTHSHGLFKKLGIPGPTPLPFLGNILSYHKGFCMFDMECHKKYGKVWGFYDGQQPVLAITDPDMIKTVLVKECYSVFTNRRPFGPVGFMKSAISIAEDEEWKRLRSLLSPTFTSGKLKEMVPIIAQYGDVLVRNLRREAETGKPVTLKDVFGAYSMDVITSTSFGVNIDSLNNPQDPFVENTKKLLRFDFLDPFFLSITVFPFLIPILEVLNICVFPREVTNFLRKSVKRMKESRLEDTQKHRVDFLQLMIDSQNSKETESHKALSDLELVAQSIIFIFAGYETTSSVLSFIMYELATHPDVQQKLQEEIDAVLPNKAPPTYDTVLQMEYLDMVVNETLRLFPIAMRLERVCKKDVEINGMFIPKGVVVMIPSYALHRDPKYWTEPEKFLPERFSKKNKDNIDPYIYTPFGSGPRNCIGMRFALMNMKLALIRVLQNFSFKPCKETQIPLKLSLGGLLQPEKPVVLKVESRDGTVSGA
Assay: Steady-state kinetics of overall NSAID metabolism
Format: in vitro ADME
Conditions: human, recombinant CYP3A4 Supersomes, pH 7.4
parameter measured: Km at 60 min (µM)
Give the quantity in µM, number only.

Indicate the recorded Km at 60 min value for this compound: O=C(O)Cc1ccccc1Nc1c(Cl)cccc1Cl [DIC, diclofenac]
130

###

Target: CYP2C9 (Homo sapiens)
Sequence (P11712 whole entry): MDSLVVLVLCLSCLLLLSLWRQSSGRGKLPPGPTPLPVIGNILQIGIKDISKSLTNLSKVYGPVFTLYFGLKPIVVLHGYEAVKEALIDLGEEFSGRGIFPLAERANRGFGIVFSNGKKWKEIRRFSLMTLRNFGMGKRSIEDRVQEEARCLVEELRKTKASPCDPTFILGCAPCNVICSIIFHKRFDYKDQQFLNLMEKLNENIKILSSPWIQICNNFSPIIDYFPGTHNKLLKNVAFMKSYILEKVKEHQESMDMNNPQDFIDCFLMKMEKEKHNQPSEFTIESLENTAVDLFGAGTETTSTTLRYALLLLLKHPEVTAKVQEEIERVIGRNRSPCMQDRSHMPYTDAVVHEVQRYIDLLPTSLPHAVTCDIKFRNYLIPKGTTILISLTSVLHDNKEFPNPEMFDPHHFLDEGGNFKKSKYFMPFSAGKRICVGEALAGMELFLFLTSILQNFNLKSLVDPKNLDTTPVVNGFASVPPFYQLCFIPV
Test: Relative CYP contribution to hepatic bioactivation and detoxification, CYP2C9
Format: in vitro ADME
Details: CYP2C9 contribution to total CLbioact of the NSAID
Would you mind telling me the reported Bioactivation Percent of each entry?
Give the quantity in %, number only.

Indicate the recorded Bioactivation Percent value for this compound: Cc1ccc(Nc2c(F)cccc2Cl)c(CC(=O)O)c1
95.8

Indicate the recorded Bioactivation Percent value for this compound: Cc1ccc(Cl)c(Nc2ccccc2C(=O)O)c1Cl
55.7

Indicate the recorded Bioactivation Percent value for this compound: Cc1c(Cl)cccc1Nc1ccccc1C(=O)O
72.8

Indicate the recorded Bioactivation Percent value for this compound: O=C(O)Cc1ccccc1Nc1c(Cl)cccc1Cl
97.9

Indicate the recorded Bioactivation Percent value for this compound: Cc1cccc(Nc2ccccc2C(=O)O)c1C
91.4

Indicate the recorded Bioactivation Percent value for this compound: O=C(O)COC(=O)Cc1ccccc1Nc1c(Cl)cccc1Cl
94.3

Indicate the recorded Bioactivation Percent value for this compound: O=C(O)c1ccccc1Nc1cccc(C(F)(F)F)c1
42.3

###

Target: CYP2C19 (Homo sapiens, UniProt P33261)
Assay: Steady-state kinetics of overall NSAID metabolism
Type: in vitro ADME
Conditions: human, recombinant CYP2C19 Supersomes, pH 7.4
parameter measured: Km at 60 min
For clarity, give the value followed by its unit.

Tell me Km at 60 min of O=C(O)Cc1ccccc1Nc1c(Cl)cccc1Cl when tested on CYP2C19 (Homo sapiens, UniProt P33261).
70.5 µM
